- Experimental Details: Toxicokinetics of TXA in plasma after subcutaneous injection
- Type: in vivo, beagle dog
- Conditions Used: beagle, dog, plasma, sc, 120 mg/kg, beagle dog, sc, 120 mg/kg/dose, Day 1; read-out: Tmax
Test Readout: Tmax (h)

- Structure As Smiles: "NC[C@H]1CC[C@H](C(=O)O)CC1"
  Unit Annotation: "h"
  Observed Measurement: 1.2

---

- Experimental Details: Toxicokinetics of TXA in plasma after subcutaneous injection
- Assay type: in vivo, beagle dog
- Conditions Used: both sexes, beagle, dog, plasma, sc, 120 mg/kg, genders combined mean, sc, 120 mg/kg, Day 10; read-out: mean peak levels (Cmax)
Test Readout: Cmax (µg/mL)

- Structure As Smiles: "NC[C@H]1CC[C@H](C(=O)O)CC1"
  Test Readout: "Cmax"
  Unit Annotation: "µg/mL"
  Observed Measurement: 119

---

- Experimental Details: Toxicokinetics of TXA in plasma after subcutaneous injection
- Type: in vivo, beagle dog
- Conditions Used: both sexes, beagle, dog, plasma, sc, 120 mg/kg, mean±SD, n=10, genders combined, sc, 120 mg/kg, Day 1; read-out: mean peak levels (Cmax)

- Compound: "NC[C@H]1CC[C@H](C(=O)O)CC1 [TXA, tranexamic acid]"
  Cmax / µg/mL: 140

---

- Experimental Details: Toxicokinetics of TXA in plasma after subcutaneous injection
- Format: in vivo, beagle dog
- Conditions Used: beagle, dog, plasma, sc, 120 mg/kg, mean±SD, sc, 120 mg/kg, Day 1; read-out: Mean terminal elimination half-life (t1/2elim) (converted)
Test Readout: half-life (h)

- Structure As Smiles: "NC[C@H]1CC[C@H](C(=O)O)CC1"
  Test Readout: "half-life"
  Unit Annotation: "h"
  Observed Measurement: 25.7

---

- Experimental Details: Toxicokinetics of TXA in plasma after subcutaneous injection
- Format: in vivo, beagle dog
- Conditions Used: beagle, dog, plasma, sc, 120 mg/kg, beagle dog, sc, 120 mg/kg/dose, Day 10; read-out: Tmax
Test Readout: Tmax (h)

- Compound: "NC[C@H]1CC[C@H](C(=O)O)CC1 [TXA, tranexamic acid]"
  Test Readout: "Tmax"
  Observed Measurement: 1.1

---

- Experimental Details: Toxicokinetics of TXA in plasma after subcutaneous injection
- Format: in vivo, beagle dog
- Conditions Used: both sexes, beagle, dog, plasma, sc, 120 mg/kg, mean±SD, n=10, genders combined, sc, 120 mg/kg, Day 10; read-out: AUC0-24
Test Readout: AUC(0-t)

- Structure As Smiles: "NC[C@H]1CC[C@H](C(=O)O)CC1"
  Observed Measurement: "468 µg·h/mL"

---

- Experimental Details: Toxicokinetics of TXA in plasma after subcutaneous injection
- Format: in vivo, beagle dog
- Conditions Used: both sexes, beagle, dog, plasma, sc, 120 mg/kg, mean±SD, n=10, genders combined, sc, 120 mg/kg, Day 10; read-out: AUC0-48

- Structure As Smiles: "NC[C@H]1CC[C@H](C(=O)O)CC1"
  AUC(0-t): "479 µg·h/mL"

---

- Experimental Details: Toxicokinetics of TXA in plasma after subcutaneous injection
- Assay type: in vivo, beagle dog
- Conditions Used: both sexes, beagle, dog, plasma; mean±SD, n=10, genders combined, sc, 120 mg/kg, Day 1
Test Readout: AUC(0-inf) (µg·h/mL)

- Compound: "NC[C@H]1CC[C@H](C(=O)O)CC1 [TXA, tranexamic acid]"
  Test Readout: "AUC(0-inf)"
  Unit Annotation: "µg·h/mL"
  Observed Measurement: 495

---

- Experimental Details: Toxicokinetics of TXA in plasma after subcutaneous injection
- Type: in vivo, beagle dog
- Conditions Used: beagle, dog, plasma, sc, 120 mg/kg, beagle dog, sc, 120 mg/kg/dose, Day 10; read-out: AUC0-72

- Structure As Smiles: "NC[C@H]1CC[C@H](C(=O)O)CC1"
  AUC(0-t): "484 µg·h/mL"

---

- Experimental Details: Toxicokinetics of TXA in plasma after subcutaneous injection
- Assay type: in vivo, beagle dog
- Conditions Used: both sexes, beagle, dog, plasma, sc, 120 mg/kg, mean±SD, n=10, genders combined, sc, 120 mg/kg, Day 10; read-out: Tmax (mean peak concentrations reached)
Test Readout: Tmax

- Compound: "NC[C@H]1CC[C@H](C(=O)O)CC1 [TXA, tranexamic acid]"
  Observed Measurement: "1.1 h"

---

- Experimental Details: Toxicokinetics of TXA in plasma after subcutaneous injection
- Type: in vivo, beagle dog
- Conditions Used: beagle, dog, plasma, sc, 120 mg/kg, beagle dog, sc, 120 mg/kg/dose, Day 1; read-out: Cmax
- Method: The objectives of this study were to determine the potential toxicity of TXA formulations, when given by subcutaneous injection to the beagle dog and to evaluate the potential reversibility of any findings, in comparison to the Reference Control Item, Tranexamic acid. In addition, the toxicokinetic profiles were determined. […] Plasma samples were analyzed for concentration of the tranexamic acid using a validated analytical procedure. […]

- Structure As Smiles: "NC[C@H]1CC[C@H](C(=O)O)CC1"
  Unit Annotation: "µg/mL"
  Cmax: 140

---

- Experimental Details: Toxicokinetics of TXA in plasma after subcutaneous injection
- Assay type: in vivo, beagle dog
- Conditions Used: both sexes, beagle, dog, plasma, sc, 120 mg/kg, mean±SD, n=10, genders combined, sc, 120 mg/kg, Day 1; read-out: AUC0-48

- Structure As Smiles: "NC[C@H]1CC[C@H](C(=O)O)CC1"
  Unit Annotation: "µg·h/mL"
  AUC(0-t): 485

---

- Experimental Details: Toxicokinetics of TXA in plasma after subcutaneous injection
- Type: in vivo, beagle dog
- Conditions Used: beagle, dog, plasma, sc, 120 mg/kg, beagle dog, sc, 120 mg/kg/dose, Day 10; read-out: t1/2 (converted)

- Structure As Smiles: "NC[C@H]1CC[C@H](C(=O)O)CC1"
  half-life (min): 1730

---

- Experimental Details: Toxicokinetics of TXA in plasma after subcutaneous injection
- Format: in vivo, beagle dog
- Conditions Used: beagle, dog, plasma, sc, 120 mg/kg, mean±SD, sc, 120 mg/kg, Day 10; read-out: Mean terminal elimination half-life (t1/2elim) (converted)

- Molecule: "NC[C@H]1CC[C@H](C(=O)O)CC1 [TXA, tranexamic acid]"
  half-life: "28.9 h"

---

- Experimental Details: Toxicokinetics of TXA in plasma after subcutaneous injection
- Type: in vivo, beagle dog
- Conditions Used: beagle, dog, plasma, sc, 120 mg/kg, beagle dog, sc, 120 mg/kg/dose, Day 1; read-out: AUC0-72
Test Readout: AUC(0-t) (µg·h/mL)

- Structure As Smiles: "NC[C@H]1CC[C@H](C(=O)O)CC1"
  Observed Measurement: 490
